B1: Osa-1-4 twister ribozyme (parent)
chain: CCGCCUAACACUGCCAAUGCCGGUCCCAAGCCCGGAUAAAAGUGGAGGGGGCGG

Variants of: B1
assay details: self-cleavage, relative activity (ratio to wild type); higher = more cleavage; co-transcriptional
# cutoff 0.1 applies to self-cleavage; >= gives 1, < gives -1

Example entries and their recorded answers appear below.
chain	label value
CCGCCUAAAACUGCCAAUGCCGGUCCCAAGCCCGGAUAAAAGUGGAGGGUGCGG	1
CCGCCUAACACUGCCAAUGCGGGUCCCAAGCCCGGAUAAAAGUGGAGGGGGCGG	-1
CCGCCUAACACUCCCAAUGCCGGUCCCAAGCCCGGAUAAAAGUGGAAGGGGCGG	-1

Quick check, self-cleavage >= 0.1? `CCGCCUAACACUGCCAAUGCCGGUCCCAAGCCCGGAUAAAAGAGGAGGGGGCGU`
1

Quick check, self-cleavage >= 0.1? `CCGCCUAACACUGCCAAAGGCGGUCCCAAGCCCGGAUAAAAGUGGAGGGGGCGG`
1

Quick check, self-cleavage >= 0.1? `CCGCCUAACACUGCCAAUGCCGGUCCCAAGCCCGGAUAAAAGGGGAGGGGCCGG`
-1

Quick check, self-cleavage >= 0.1? `CCGCCUAACACUGCCAAUGCCGGUCCCAAGCCCGGAUAAAGGUGGAGGGGGCGC`
1

Quick check, self-cleavage >= 0.1? `CCGCCUAACACUGCCAAUGCCGGUCCCAAGCCCAGAUAAAAGUGAAGGGGGCGG`
1
